# credit: the supplement of paper PMC9117331

test system: PC9; assay: PKC reporter activity score (signed KS statistic vs DMSO) (signed KS statistic (-1 to 1)); higher = stronger activation of the pathway reporter relative to DMSO; conditions: 0.5 µM; time after treatment 48 h; PC9 signalome
Criterion met means recorded PKC reporter activity score is -0.05 or above; Criterion not met means it is below -0.05.

[
  {
    "COMPOUND": "O=C(NCCCNc1nc(Nc2cccc(NC(=O)N3CCCC3)c2)ncc1I)c1cccs1",
    "GROUP": "Criterion met"
  },
  {
    "COMPOUND": "COc1ccc(-c2ccc3c(N4CCOCC4)nc(N4C[C@@H](C)O[C@@H](C)C4)nc3n2)cc1CO",
    "GROUP": "Criterion not met"
  },
  {
    "COMPOUND": "Cc1ccc(C(=O)N(CCCN)[C@@H](c2oc3cc(Cl)ccc3c(=O)c2Cc2ccccc2)C(C)C)cc1",
    "GROUP": "Criterion met"
  },
  {
    "COMPOUND": "O=C(Nc1cc(C(F)(F)F)cc(C(F)(F)F)c1)c1cc(Cl)ccc1O",
    "GROUP": "Criterion met"
  },
  {
    "COMPOUND": "Cc1cc(C(=O)NOCCO)c(Nc2ccc(I)cc2F)n(C)c1=O",
    "GROUP": "Criterion met"
  },
  {
    "COMPOUND": "C=CC(=O)Nc1cccc(Sc2nc(Nc3ccc(N4CCN(C)CC4)cc3)ncc2Cl)c1",
    "GROUP": "Criterion met"
  },
  {
    "COMPOUND": "Cn1cnc2c(F)c(Nc3ccc(Br)cc3Cl)c(C(=O)NOCCO)cc21 [AZD6244 (Selumetinib)]",
    "GROUP": "Criterion not met"
  },
  {
    "COMPOUND": "CCn1c(-c2nonc2N)nc2c(C#CC(C)(C)O)ncc(OC[C@H]3CCCNC3)c21",
    "GROUP": "Criterion not met"
  },
  {
    "COMPOUND": "COc1ccc(-c2ccc3c(N4CCOC[C@@H]4C)nc(N4CCOC[C@@H]4C)nc3n2)cc1CO",
    "GROUP": "Criterion met"
  },
  {
    "COMPOUND": "COc1ncc(-c2ccc3nccc(-c4ccnnc4)c3c2)cc1NS(=O)(=O)c1ccc(F)cc1F",
    "GROUP": "Criterion met"
  },
  {
    "COMPOUND": "Cc1c(NC(=O)OC[C@@H]2COCCN2)cn2ncnc(Nc3ccc4c(cnn4Cc4cccc(F)c4)c3)c12",
    "GROUP": "Criterion met"
  },
  {
    "COMPOUND": "COc1cc2ncnc(Nc3ccc(F)c(Cl)c3)c2cc1NC(=O)/C=C/CN1CCCCC1",
    "GROUP": "Criterion met"
  },
  {
    "COMPOUND": "CO[C@H]1C[C@@H]2CC[C@@H](C)[C@@](O)(O2)C(=O)C(=O)N2CCCC[C@H]2C(=O)O[C@H]([C@H](C)C[C@@H]2CC[C@@H](O)[C@H](OC)C2)CC(=O)[C@H](C)/C=C(\\C)[C@@H](O)[C@@H](OC)C(=O)[C@H](C)C[C@H](C)/C=C/C=C/C=C/1C [Rapamycin (Sirolimus)]",
    "GROUP": "Criterion met"
  },
  {
    "COMPOUND": "Nc1ncnc2c1c(-c1cnc3[nH]ccc3c1)nn2C1CCCC1",
    "GROUP": "Criterion met"
  },
  {
    "COMPOUND": "COc1ccc(-c2cc3c(C)nc(N)nc3n([C@H]3CC[C@H](OCCO)CC3)c2=O)cn1",
    "GROUP": "Criterion not met"
  },
  {
    "COMPOUND": "Cc1[nH]nc2ccc(-c3cncc(OC[C@@H](N)Cc4ccccc4)c3)cc12",
    "GROUP": "Criterion not met"
  }
]

###

test system: PC9; test: ERK reporter activity score (signed KS statistic vs DMSO) (signed KS statistic (-1 to 1)); higher = stronger activation of the pathway reporter relative to DMSO; conditions: 0.5 µM; time after treatment 48 h; PC9 signalome
Where a name gives a salt, the structure may show the parent alone.
Labels assigned by ERK reporter activity score range: A = under -0.4, B = from -0.4 up to -0.1, C = -0.1 and over

[
  {
    "MOLECULE": "COc1cc2ncnc(Nc3ccc(F)c(Cl)c3)c2cc1OCCCN1CCOCC1",
    "GROUP": "A"
  },
  {
    "MOLECULE": "C[C@@H](Oc1cc(-n2cnc3ccc(CN4CCN(C)CC4)cc32)sc1C(N)=O)c1ccccc1C(F)(F)F",
    "GROUP": "B"
  },
  {
    "MOLECULE": "C=CC(=O)Nc1ccc2ncnc(Nc3cccc(Br)c3)c2c1",
    "GROUP": "A"
  },
  {
    "MOLECULE": "CC(=O)Nc1cccc(-n2c(=O)n(C3CC3)c(=O)c3c(Nc4ccc(I)cc4F)n(C)c(=O)c(C)c32)c1",
    "GROUP": "A"
  },
  {
    "MOLECULE": "CN1CC[C@H](c2c(O)cc(O)c3c(=O)cc(-c4ccccc4Cl)oc23)[C@H](O)C1 [Flavopiridol hydrochloride]",
    "GROUP": "A"
  },
  {
    "MOLECULE": "Nc1ncnc2c1c(-c1cnc3[nH]ccc3c1)nn2C1CCCC1",
    "GROUP": "B"
  },
  {
    "MOLECULE": "CN(C)C/C=C/C(=O)Nc1cc2c(Nc3ccc(F)c(Cl)c3)ncnc2cc1O[C@H]1CCOC1",
    "GROUP": "A"
  },
  {
    "MOLECULE": "Cc1ccc(C(=O)N(CCCN)[C@@H](c2oc3cc(Cl)ccc3c(=O)c2Cc2ccccc2)C(C)C)cc1",
    "GROUP": "B"
  },
  {
    "MOLECULE": "C=CC(=O)N1CCC[C@@H](n2nc(-c3ccc(Oc4ccccc4)cc3)c3c(N)ncnc32)C1",
    "GROUP": "A"
  },
  {
    "MOLECULE": "CO[C@H]1C[C@@H]2CC[C@@H](C)[C@@](O)(O2)C(=O)C(=O)N2CCCC[C@H]2C(=O)O[C@H]([C@H](C)C[C@@H]2CC[C@@H](OP(C)(C)=O)[C@H](OC)C2)CC(=O)[C@H](C)/C=C(\\C)[C@@H](O)[C@@H](OC)C(=O)[C@H](C)C[C@H](C)/C=C/C=C/C=C/1C",
    "GROUP": "C"
  },
  {
    "MOLECULE": "COc1ncc(-c2ccc3nccc(-c4ccnnc4)c3c2)cc1NS(=O)(=O)c1ccc(F)cc1F",
    "GROUP": "B"
  },
  {
    "MOLECULE": "CC(C)CC(=O)Nc1n[nH]c2c1CN(C(=O)C1CCN(C)CC1)C2(C)C",
    "GROUP": "B"
  },
  {
    "MOLECULE": "CN1CCN(c2nc(C3=C(c4c[nH]c5ccccc45)C(=O)NC3=O)c3ccccc3n2)CC1",
    "GROUP": "C"
  },
  {
    "MOLECULE": "COc1ccc(-c2ccc3c(N4CCOCC4)nc(N4C[C@@H](C)O[C@@H](C)C4)nc3n2)cc1CO",
    "GROUP": "C"
  },
  {
    "MOLECULE": "CCN(CC)CCNC(=O)c1c(C)[nH]c(/C=C2\\C(=O)Nc3ccc(F)cc32)c1C [Sunitinib Malate (Sutent)]",
    "GROUP": "C"
  },
  {
    "MOLECULE": "CCn1c(-c2nonc2N)nc2c(C#CC(C)(C)O)ncc(OC[C@H]3CCCNC3)c21",
    "GROUP": "C"
  },
  {
    "MOLECULE": "C[C@H](NC(=O)Cc1cc(F)cc(F)c1)C(=O)N[C@@H]1C(=O)N(C)c2ccccc2-c2ccccc21",
    "GROUP": "B"
  },
  {
    "MOLECULE": "Cc1c(NC(=O)OC[C@@H]2COCCN2)cn2ncnc(Nc3ccc4c(cnn4Cc4cccc(F)c4)c3)c12",
    "GROUP": "B"
  },
  {
    "MOLECULE": "Cc1ccc([N+](=O)[O-])cc1S(=O)(=O)N(C)/N=C/c1cnc2ccc(Br)cn12",
    "GROUP": "B"
  },
  {
    "MOLECULE": "COc1ccc(-c2ccc3c(N4CCOC[C@@H]4C)nc(N4CCOC[C@@H]4C)nc3n2)cc1CO",
    "GROUP": "B"
  },
  {
    "MOLECULE": "Cn1cnc2c(F)c(Nc3ccc(Br)cc3Cl)c(C(=O)NOCCO)cc21 [AZD6244 (Selumetinib)]",
    "GROUP": "B"
  },
  {
    "MOLECULE": "Cc1nc(NC(=O)N2CCC[C@H]2C(N)=O)sc1-c1ccnc(C(C)(C)C(F)(F)F)c1",
    "GROUP": "C"
  },
  {
    "MOLECULE": "Cc1[nH]nc2ccc(-c3cncc(OC[C@@H](N)Cc4ccccc4)c3)cc12",
    "GROUP": "B"
  },
  {
    "MOLECULE": "COc1ccc(-c2cc3c(C)nc(N)nc3n([C@H]3CC[C@H](OCCO)CC3)c2=O)cn1",
    "GROUP": "C"
  },
  {
    "MOLECULE": "O=C(NOC[C@H](O)CO)c1ccc(F)c(F)c1Nc1ccc(I)cc1F",
    "GROUP": "A"
  },
  {
    "MOLECULE": "CCN1CCN(Cc2ccc(-c3cc4c(N[C@H](C)c5ccccc5)ncnc4[nH]3)cc2)CC1",
    "GROUP": "A"
  },
  {
    "MOLECULE": "O=C(/C=C/c1cccc(S(=O)(=O)Nc2ccccc2)c1)NO",
    "GROUP": "B"
  },
  {
    "MOLECULE": "O=C(Nc1cc(C(F)(F)F)cc(C(F)(F)F)c1)c1cc(Cl)ccc1O",
    "GROUP": "C"
  },
  {
    "MOLECULE": "COc1cccc2c1C(=O)c1c(O)c3c(c(O)c1C2=O)C[C@@](O)(C(C)=O)C[C@@H]3O[C@H]1C[C@H](N)[C@H](O)[C@H](C)O1 [Daunorubicin HCl (Daunomycin HCl)]",
    "GROUP": "A"
  },
  {
    "MOLECULE": "C#CCC(Cc1cnc2nc(N)nc(N)c2n1)c1ccc(C(=O)N[C@@H](CCC(=O)O)C(=O)O)cc1 (some centres not stated) [Pralatrexate(Folotyn)]",
    "GROUP": "B"
  },
  {
    "MOLECULE": "O=C(NCCCNc1nc(Nc2cccc(NC(=O)N3CCCC3)c2)ncc1I)c1cccs1",
    "GROUP": "C"
  },
  {
    "MOLECULE": "CCN1CCN(Cc2ccc(Nc3ncc(F)c(-c4cc(F)c5nc(C)n(C(C)C)c5c4)n3)nc2)CC1",
    "GROUP": "C"
  }
]
